tested-target: Rac GTPase-activating protein 1 (Homo sapiens) (UniProt Q9H0H5)
Sequence (Q9H0H5 whole entry, looked up): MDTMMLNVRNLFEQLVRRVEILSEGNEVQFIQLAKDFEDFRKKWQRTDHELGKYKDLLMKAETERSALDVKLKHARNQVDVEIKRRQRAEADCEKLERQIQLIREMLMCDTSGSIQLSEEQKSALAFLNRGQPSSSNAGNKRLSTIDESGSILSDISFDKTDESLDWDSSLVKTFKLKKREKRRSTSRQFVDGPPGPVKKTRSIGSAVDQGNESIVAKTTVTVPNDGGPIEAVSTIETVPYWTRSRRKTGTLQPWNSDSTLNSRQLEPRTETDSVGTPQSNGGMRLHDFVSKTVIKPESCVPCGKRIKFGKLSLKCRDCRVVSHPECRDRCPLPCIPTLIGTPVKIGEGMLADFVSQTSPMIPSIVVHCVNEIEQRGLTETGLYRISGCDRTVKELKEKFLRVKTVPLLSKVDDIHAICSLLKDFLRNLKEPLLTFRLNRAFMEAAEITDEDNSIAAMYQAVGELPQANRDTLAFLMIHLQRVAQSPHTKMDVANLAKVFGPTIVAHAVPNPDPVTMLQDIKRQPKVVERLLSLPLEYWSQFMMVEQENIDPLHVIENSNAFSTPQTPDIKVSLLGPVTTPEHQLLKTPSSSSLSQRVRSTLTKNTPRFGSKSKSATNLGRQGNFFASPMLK
assay-overview: blockers of MgcRacGAP-driven Rac1 GTP hydrolysis – biochemical, ADP Hunter fluorescence, primary and confirmatory, confirmation (AID 624330);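 note: fluorescence reports GDP produced by GAP-driven GTP hydrolysis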
stated-conditions: MgcRacGAP-stimulated Rac1 GTP hydrolysis, at 30 µM, active compounds read high, GST-tagged Rac1 F28L mutant substrate
Among all 340,000 compounds or so, about 2,100 (0.62%) were called active. The list is a sample of the results. Entries with a potency or affinity are not part of this list.
Listing: inhibition of selected molecules
Please state the figure in %; there is no need to write the unit.

In: API: value(readout=inhibition, system=Rac GTPase-activating protein 1 (Homo sapiens) (UniProt Q9H0H5)) for record O=C(CCCCO)CCCCCCCC[C@H]1N[C@H](CO)[C@H](O)[C@@H]1O[C@@H]1O[C@H](CO)[C@@H](O)[C@H](O)[C@H]1O
Out: 6.38

In: How about Cc1cc(C)nc(N/N=C/C2=C(N3CCOCC3)C(=C/c3ccccc3)/CC2)n1 ?
Out: 9.21

* * *

tested-target: Rac GTPase-activating protein 1 (Homo sapiens)
assay-overview: blockers of MgcRacGAP-driven Rac1 GTP hydrolysis – biochemical, ADP Hunter fluorescence, primary and confirmatory, confirmation (AID 624330);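 note: fluorescence reports GDP produced by GAP-driven GTP hydrolysis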
stated-conditions: MgcRacGAP-stimulated Rac1 GTP hydrolysis, at 30 µM, active compounds read high, GST-tagged Rac1 F28L mutant substrate
Out of some 340,000 compounds screened, about 2,100 (0.62%) were called active. These entries were drawn from the full list. Entries with a potency or affinity are not part of this list.
In this section we review reported inhibition values for a set of molecules.
Reply with just the number (in %).

C=CCn1c(SCC(=O)Nc2cc(C)on2)nc2sc(CC)cc2c1=O | -5.28
CC1=NNC(=O)C1CC(=O)N/N=C(\C)c1cccs1 (stereo unspecified) | 3.05
COc1cc(C2=NOC(C(=O)N3CCOCC3)C2)cc(OC)c1OC (stereo unspecified) | 7.04

In: Item COc1cc2c(cc1NC(=O)CSc1nc3cc(Cl)ccc3s1)oc1ccccc12 has what recorded inhibition?
Out: 5.98

In: Let us now turn to C=CCn1c(SCC(=O)NC2CC2)nc2sc(CC)cc2c1=O
Out: 2.06

In: Now consider CC1CCCCN1CC(=O)Nc1ccc2c(c1)OC(F)(F)O2 (stereo unspecified) and answer again.
Out: -6.38

* * *

tested-target: Rac GTPase-activating protein 1 (Homo sapiens) (UniProt Q9H0H5)
assay-overview: blockers of MgcRacGAP-driven Rac1 GTP hydrolysis – biochemical, ADP Hunter fluorescence, primary and confirmatory, confirmation (AID 624330);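 note: fluorescence reports GDP produced by GAP-driven GTP hydrolysis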
stated-conditions: MgcRacGAP-stimulated Rac1 GTP hydrolysis, at 30 µM, active compounds read high, GST-tagged Rac1 F28L mutant substrate
Hit rate of the full screen: of about 340,000 compounds, about 2,100 (0.62%) were called active. Only a sample is shown. Measured potencies and affinities stand elsewhere.
readout-label: inhibition (%)
Provide the reading as a plain figure in %.

In: What does the record list as inhibition for CSc1nc2sc3c(c2c(=O)n1C)CCC3 ?
Out: 15.1

In: Can you handle Cc1ccc(S(=O)(=O)N2CCC(C(=O)NCCc3ccccn3)CC2)cc1 next?
Out: -0.14

In: Now the compound O=C(Nc1ccccc1)N1CCc2scc[n+]2-c2ccccc21
Out: 16.9

In: Same lookup for CC(C)(C)c1nc2ccc(NS(=O)(=O)c3ccc(F)c(F)c3F)cc2[nH]1 , please.
Out: -2.67

In: Request: NCCSc1c(-c2ccc(Cl)cc2)[nH]c2ccccc12
Out: 8.34

In: Further, for O=C(NCC1COc2ccccc2O1)c1ccc(NC(=O)C2CCCO2)cc1 (configuration not stated) ?
Out: 10.6

In: // same read-out, input: C#CCNC(=O)C1=C[C@@H](C(C)(C)C)C[C@@H](OCc2ccc(CO)cc2)O1
Out: 7.54

Hello, the source for this data is PubChem BioAssay AID624330, in case you need it.
